- Test system: VchCAST RNA-guided transposition machinery (E. coli BL21(DE3) host, lacZ target)
- assay.info: relative integration efficiency (T-LR orientation) vs wild-type transposon end (log2 (normalized fold change)); transposon end mutated: right end (5 bp flank + 75 bp right end); higher = more efficient transposition
Decide by relative integration efficiency (log2): equal to or exceeding -0.5 means true (1), less means false (0).

Task: Answer whether relative integration efficiency (log2) of ACATTTGTTGATACAACCATAAAATCATCATTACCCCCATAAATTGATAATTATCACACCCAATTTAACTATAACGCTCTGATCATAGTCAGACCAACATTGCTACGACCCGTATTCGCACCGACAC is greater than or equal to -0.5.
Output: true (1)

Task: Exam item: decide whether the reported relative integration efficiency (log2) for ACATTTGTTGATACAACCATAAAACGATAATTACACCCATAAATTCATCATTATCACACCCAATTTAACTATAACGCTCTGATCATAGTCAGACCAACATTGCTACGACCCGTATTCGCACCGACAC is at least -0.5.
Output: true (1)

Task: Decide: relative integration efficiency (log2) of ACATTTGTTGATACCACCATCAAATGATAATTACACCCCTACATTGATAATTATCACACCCAATTTAACTATAACGCTCTGATCATAGTCAGACCAACATTGCTACGACCCGTATTCGCACCGACAC >= -0.5?
Output: false (0)

Task: Decide: relative integration efficiency (log2) of ACATTTGTTGATACTTCCATAAAATGATAATTACACCCATAAATTGATAATTATCACACCCATAAATTGATATTGCCTCTGATCATAGTCAGACCAACATTGCTACGACCCGTATTCGCACCGACAC >= -0.5?
Output: false (0)

Task: Has ACATTTGTTGATACAACCATAAAATGATAATTACACCCATAAATTGATAATTAGACAACCCATAAATTGATATTGCCTCTGATCATAGTCAGACCAACATTGCTACGACCCGTATTCGCACCGACAC a recorded relative integration efficiency (log2) greater than or equal to -0.5?
Output: true (1)

Task: In plain terms: is recorded relative integration efficiency (log2) at least -0.5 for ACATTTGTTGATACAACCATAAAATGATAATTATAATTATCATTTTATGGTTGTCACAACCATAAAATGATAATTACTCTGATCATAGTCAGACCAACATTGCTACGACCCGTATTCGCACCGACAC ?
Output: false (0)

Task: Textbook exercise: given the entry ACATTTGTTGATACAACCATAAAATGATAATTACACCCATAAATTGATAATTATCACCAAACGCCCGGTCGCGGTAAGAGGATCATAGTCAGACCAACATTGCTACGACCCGTATTCGCACCGACAC , state whether its relative integration efficiency (log2) is greater than or equal to -0.5.
Output: true (1)

Task: Hello, I need to know if ACATTTGTTGATACACCCATAAATTGATATTGCCACCCATAAATTGATAATTATCACAACCATAAGTTGATATTTTCTCTGATCATAGTCAGACCAACATTGCTACGACCCGTATTCGCACCGACAC has measured relative integration efficiency (log2) not below -0.5. Thanks!
Output: true (1)

Task: Determine whether this sequence has relative integration efficiency (log2) no lower than -0.5: ACATTTGTTGATACAACCATTAAATGATAATTACACCCATTAATTGATAATTATCACACCCATTAATTGATATTGCCTCTGATCATAGTCAGACCAACATTGCTACGACCCGTATTCGCACCGACAC
Output: true (1)

Task: Can ACATTGGTCGATACAACCATAAAATGATAATTACACCCATAAATTGATCATTATCACACCCAATTTAACTATAACGCTCTGATCATAGTCAGACCAACATTGCTACGACCCGTATTCGCACCGACAC be said to have relative integration efficiency (log2) at or above -0.5?
Output: false (0)
